I'd appreciate it if you could supply sensor-assay potency score (higher = more potent) values for the items below.
Biological target: PHF15; further: reference of the scale not given here
Test: pooled miR-30 sensor sort-seq; sequence = guide strand
Details: shRNA
// return just the number, without any unit appended

Give recorded sensor-assay potency score (higher = more potent). `TCTAACCCTCTCTAGGTCCTGC`
0.0914

Give recorded sensor-assay potency score (higher = more potent). `ATCTCGTCCAAGTCATAGCGGC`
-1.39

Give recorded sensor-assay potency score (higher = more potent). `TAGATGTCGCATGACTGTCAGT`
-1.14

Give recorded sensor-assay potency score (higher = more potent). `TACATCTGAGTCGCTCATCTCC`
-0.519

Give recorded sensor-assay potency score (higher = more potent). `TAATATAGTCCGCATTTCCAGG`
-1.26

Give recorded sensor-assay potency score (higher = more potent). `TTGTCTGCTAATATAGTCCGCA`
0.0345

Give recorded sensor-assay potency score (higher = more potent). `TTCAATAAGTTTCATCTGCAGG`
-0.499

Give recorded sensor-assay potency score (higher = more potent). `TTGTCCACCTCGTCGGTCTTGG`
-0.798

Give recorded sensor-assay potency score (higher = more potent). `TTGTCTGGAGTCGTCCGTGAAC`
-1.11

Give recorded sensor-assay potency score (higher = more potent). `TTGACCTCATCGTTGTCTGCTA`
-0.147
